assay: Single dose pharmacokinetic study in male ICR mice; type: in vivo; settings: mouse; PO 30 mg/kg, male ICR mice, plasma
Attribute measured: Cmax (µg/mL)
Reply with just the number (in µg/mL).

[Q] Requested read-out: Cmax. Entry: O=S(=O)(NCCCOc1ccccc1-c1cnc[nH]1)C(F)(F)F [DX-03-12]
[A] 2.96

----------
assay: Single dose pharmacokinetic study in male ICR mice; format: in vivo; conditions: mouse, plasma; iv 3 mg/kg, male ICR mice
Attribute measured: Tmax (min)
Unit min implied. Number only.

[Q] What value of Tmax has been reported for the following compound? O=S(=O)(NCCCOc1ccccc1-c1cnc[nH]1)C(F)(F)F [DX-03-12]
[A] 1.98

----------
test: Single dose pharmacokinetic study in male ICR mice; type: in vivo; details: mouse, plasma; iv 3 mg/kg, male ICR mice
Attribute measured: clearance
Express the reported value numerically, then name its unit.

[Q] // lookup clearance for O=S(=O)(NCCCOc1ccccc1-c1cnc[nH]1)C(F)(F)F
[A] 33.3 mL/min/kg

----------
Test: Single dose pharmacokinetic study in male ICR mice
Assay type: in vivo
Settings: male, ICR, mouse, plasma, iv, 3 mg/kg, iv 3 mg/kg, male ICR mice; read-out: Vss
Protocol: The animal Care and Welfare Committee of Institute of Materia Medica, Chinese Academy of Medical Sciences approved all animal care, housing, and laboratory procedures. Male ICR mice were used in the single dose pharmacokinetic studies. […] The supernatant were analyzed by liquid chromatography/tandem mass spectrometry (Agilent Technologies, Santa Clara, CA, USA) with a Zobax C18 column (50 mm × 2.1 mm, 3.5 µm). […]
Attribute measured: Vd (L/kg)
Report as a plain number; the unit L/kg is understood.

[Q] Any idea what its Vd is? The compound is O=S(=O)(NCCCOc1ccccc1-c1cnc[nH]1)C(F)(F)F [DX-03-12]
[A] 10

----------
Entries annotated with measured pIC50
test system: MCF7; assay: Cell viability MTT assay, 72 h; assay type: cell-based; conditions: Homo sapiens, read-out: MCF7 IC50
pIC50 here is simply -log10 of the concentration when that concentration is written in mol/L.

# Compound, pIC50
measured = [
    ("CC(=O)O[C@H]1C(=O)[C@@]2(C)[C@H]([C@H](OC(=O)c3ccccc3)[C@]3(O)C[C@H](OC(=O)[C@H](O)[C@@H](NC(=O)c4ccccc4)c4ccccc4)C(C)=C1C3(C)C)[C@]1(OC(C)=O)CO[C@@H]1C[C@@H]2O [Taxol, reference compound]", 7.82),
]

[Q] I would be grateful if you could share the reported pIC50 for Cc1cccc2[nH]cc(C(=O)O)c12 [DX-01-02, 4-methyl-1H-indole-3-carboxylic Acid] .
[A] 4.37

[Q] Request the reported pIC50 associated with Oc1ccc(Cl)cc1-c1cn(Cc2ccc(C(F)(F)F)cc2)nn1 [DX-04-05]
[A] 4.37

[Q] // lookup pIC50 for COc1ccc(Cl)cc1-c1cn(Cc2ccc(C(F)(F)F)cc2)cn1 [DX-04-01]
[A] 5.07

[Q] Query: pIC50; subject: Oc1ccc(Cl)cc1-c1nn[nH]c1-c1ccc(C(F)(F)F)cc1 [DX-04-07]
[A] 4.91

[Q] Reported pIC50, compound COc1ccc(Cl)cc1-c1cn(Cc2ccc(C(F)(F)F)cc2)nn1 [DX-04-06] : ____
[A] 4.31

[Q] What value of pIC50 has been reported for the following compound? Oc1ccc(Cl)cc1-c1cn(Cc2ccc(C(F)(F)F)cc2)cn1 [DX-04-02]
[A] 4.45

----------
test: Single dose pharmacokinetic study in male ICR mice; type: in vivo; conditions: male, ICR, mouse, plasma, po, 30 mg/kg, PO 30 mg/kg, male ICR mice; read-out: t1/2β (converted)
Attribute measured: half-life

[Q] Any idea what half-life was measured for O=S(=O)(NCCCOc1ccccc1-c1cnc[nH]1)C(F)(F)F ?
[A] ~4.6 h

----------
assay: Single dose pharmacokinetic study in male ICR mice; type: in vivo; settings: mouse, plasma; iv 3 mg/kg, male ICR mice
Attribute measured: AUC(0-inf) (ng·h/mL)
A number alone suffices; assume ng·h/mL.

[Q] Look at this molecule and give its reported AUC(0-inf). O=S(=O)(NCCCOc1ccccc1-c1cnc[nH]1)C(F)(F)F [DX-03-12]
[A] 1500

----------
system: MCF7; assay: Cell viability MTT assay, 72 h; format: cell-based; details: Homo sapiens, unit inferred, read-out: MCF7 IC50 or %
Attribute measured: IC50 (µM)
Write it as a number; the unit µM goes unstated.

[Q] // lookup IC50 for O=C(NCCCOc1ccccc1-c1cnc[nH]1)Nc1ccc(C(F)(F)F)cc1
[A] 21.4

----------
Recorded inhibition at 50 µM values for a group of compounds are listed next.
biological target: rhTDO (Homo sapiens, UniProt P48775); assay: Enzyme-based TDO activity assay (kynurenine absorbance at 492 nm); type: biochemical; conditions: at 50 μM; shown when calculated IC50 >50 μM; read-out: TDO inhibition rate (%) at 50 μM
Sequence (P48775 whole entry): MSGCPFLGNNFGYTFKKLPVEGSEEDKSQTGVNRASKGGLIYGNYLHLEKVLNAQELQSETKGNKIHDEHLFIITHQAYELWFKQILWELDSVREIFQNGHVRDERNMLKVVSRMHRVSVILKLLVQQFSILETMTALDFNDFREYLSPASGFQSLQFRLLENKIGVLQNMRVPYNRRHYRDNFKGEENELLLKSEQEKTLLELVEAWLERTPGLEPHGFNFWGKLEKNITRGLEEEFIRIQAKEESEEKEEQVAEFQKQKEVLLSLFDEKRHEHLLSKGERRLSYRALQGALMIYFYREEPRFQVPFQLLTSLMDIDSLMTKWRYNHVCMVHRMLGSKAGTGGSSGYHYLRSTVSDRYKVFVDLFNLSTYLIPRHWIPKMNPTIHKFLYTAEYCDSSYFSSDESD
Please respond with the number in % and leave the unit unwritten.

Guide cases for inhibition at 50 µM, answers given:
# Compound, Measured value
rows = [
    ("O=C(NO)c1c[nH]c2ccccc12", 33.9),
    ("O=C(NCCCOc1ccccc1-c1cnc[nH]1)Nc1ccc(C(F)(F)F)cc1", 38.9),
    ("COc1ccc(-c2c[nH]cn2)c(/C=N/O)c1", 15.1),
]

[Q] Query the reported inhibition at 50 µM for rhTDO (Homo sapiens, UniProt P48775); item: O/N=C/c1cc(-c2ccccc2C(F)(F)F)ccc1-c1c[nH]cn1
[A] 11.1

[Q] Kindly state the measured inhibition at 50 µM obtained for CSc1[nH]c2ccc(F)cc2c1C1CC(=O)NC1=O (racemic) with rhTDO (Homo sapiens, UniProt P48775).
[A] 19.6

----------
test: Single dose pharmacokinetic study in male ICR mice; format: in vivo; details: male, ICR, mouse, plasma, iv, 3 mg/kg, iv 3 mg/kg, male ICR mice; read-out: t1/2β (converted)
Attribute measured: half-life (h)
Kindly provide the numeric value in h only, without the unit symbol.

[Q] Name the recorded half-life for O=S(=O)(NCCCOc1ccccc1-c1cnc[nH]1)C(F)(F)F .
[A] 3.49

----------
target: UniProt:P48775; assay: Enzyme-based TDO activity assay (kynurenine absorbance at 492 nm); assay type: biochemical; conditions: at 50 μM; shown when calculated IC50 >50 μM; read-out: TDO inhibition rate (%) at 50 μM
Listed here: items and their measured inhibition at 50 µM.
// return numeric value only (unit: %, not printed)

# Compound, inhibition at 50 µM / %
records = [
    ("O=C1CC(Cc2c[nH]c3ccccc23)C(=O)N1 (racemic)", 2.3),
]

[Q] Return reported inhibition at 50 µM; argument: O=C(O)c1c[nH]c2ccc([N+](=O)[O-])cc12
[A] 6

[Q] Item under review: O/N=C/c1cc(Cl)ccc1-c1c[nH]cn1 . Reported inhibition at 50 µM?
[A] 12.1

----------
assay: Single dose pharmacokinetic study in male ICR mice; assay type: in vivo; conditions: mouse; iv 3 mg/kg, male ICR mice, plasma
Attribute measured: Cmax (ng/mL)
Give the value in ng/mL but do not write ng/mL after it.

[Q] Could you tell me which Cmax is on file for O=S(=O)(NCCCOc1ccccc1-c1cnc[nH]1)C(F)(F)F ?
[A] 2140

----------
test: Single dose pharmacokinetic study in male ICR mice; format: in vivo; conditions: mouse, plasma; PO 30 mg/kg, male ICR mice
Attribute measured: Tmax (h)
API: value field is a number in h; no unit string.

[Q] Item O=S(=O)(NCCCOc1ccccc1-c1cnc[nH]1)C(F)(F)F has what recorded Tmax?
[A] 1

----------
molecular target: rhIDO1 (Homo sapiens, UniProt P14902)
Sequence (P14902 whole entry): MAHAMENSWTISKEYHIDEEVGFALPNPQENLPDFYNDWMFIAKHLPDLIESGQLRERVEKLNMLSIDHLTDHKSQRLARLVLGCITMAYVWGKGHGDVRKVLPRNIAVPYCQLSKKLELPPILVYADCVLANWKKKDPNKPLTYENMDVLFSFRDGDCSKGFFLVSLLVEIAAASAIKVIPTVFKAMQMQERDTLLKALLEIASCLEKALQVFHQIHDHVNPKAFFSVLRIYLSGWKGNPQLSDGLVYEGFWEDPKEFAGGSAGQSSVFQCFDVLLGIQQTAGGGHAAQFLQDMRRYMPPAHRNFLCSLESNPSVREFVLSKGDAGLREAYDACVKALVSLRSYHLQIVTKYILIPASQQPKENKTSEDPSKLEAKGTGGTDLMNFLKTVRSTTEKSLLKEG
Attribute measured: IC50 (µM)
All answers are understood in µM, so give the number only.

Here are 3 compounds together with their reported answers.
# Compound, IC50 / µM
records = [
    ("NS(=O)(=O)NCCCOc1ccccc1-c1c[nH]cn1", 2.4),
    ("O/N=C/c1cc2ccccc2[nH]1 [DX-01-16, (E)-1H-indole-2-carbaldehyde Oxime]", 23.2),
    ("ONCc1c[nH]c2ccccc12 [DX-01-14, N-((1H-indol-3-yl)methyl)hydroxylamine]", 11.1),
]

Let's switch to this compound now.
[Q] Entry ONCc1cc2ccccc2[nH]1 [DX-01-17, N-((1H-indol-2-yl)methyl)hydroxylamine] has what IC50?
[A] 17.7

----------
target: rhIDO1 (Homo sapiens, UniProt P14902); assay: Enzyme-based IDO1 activity assay (kynurenine absorbance at 492 nm); assay type: biochemical; conditions: at 50 μM; shown when calculated IC50 >50 μM; read-out: IDO inhibition rate (%) at 50 μM
# thresholds on inhibition at 50 µM define classes: low value = under 10%, medium value = from 10% up to 20%, high value = 20% and over

# Compound, Study system, Class label
measured = [
    ("O=C(O)c1cc2ccccc2[nH]1", "rhIDO1 (Homo sapiens, UniProt P14902)", "low value"),
]

[Q] Where would O=C1CC(Cc2c[nH]c3ccccc23)C(=O)N1 (racemic) land among the classes by reported inhibition at 50 µM?
[A] low value

[Q] Exercise: read the entry O/N=C/c1cc(Cl)ccc1-c1c[nH]cn1 and state which class it falls under.
[A] high value

[Q] Kindly identify the class of Oc1ccc(Cl)cc1-c1nn[nH]c1-c1ccc(C(F)(F)F)cc1 .
[A] high value

[Q] Which inhibition at 50 µM band matches O=C1CC(c2c(CNO)[nH]c3ccc(F)cc23)C(=O)N1 (racemic) ?
[A] medium value

[Q] State the band of FC(F)(F)c1ccc(COc2ccccc2-c2csnn2)cc1
[A] medium value

[Q] In plain terms, what class is N#CCc1nc2ccccc2[nH]1 ?
[A] medium value
